- target.of.assay: human TLR7 (Homo sapiens, UniProt Q9NYK1)
- Sequence (Q9NYK1 27-1049): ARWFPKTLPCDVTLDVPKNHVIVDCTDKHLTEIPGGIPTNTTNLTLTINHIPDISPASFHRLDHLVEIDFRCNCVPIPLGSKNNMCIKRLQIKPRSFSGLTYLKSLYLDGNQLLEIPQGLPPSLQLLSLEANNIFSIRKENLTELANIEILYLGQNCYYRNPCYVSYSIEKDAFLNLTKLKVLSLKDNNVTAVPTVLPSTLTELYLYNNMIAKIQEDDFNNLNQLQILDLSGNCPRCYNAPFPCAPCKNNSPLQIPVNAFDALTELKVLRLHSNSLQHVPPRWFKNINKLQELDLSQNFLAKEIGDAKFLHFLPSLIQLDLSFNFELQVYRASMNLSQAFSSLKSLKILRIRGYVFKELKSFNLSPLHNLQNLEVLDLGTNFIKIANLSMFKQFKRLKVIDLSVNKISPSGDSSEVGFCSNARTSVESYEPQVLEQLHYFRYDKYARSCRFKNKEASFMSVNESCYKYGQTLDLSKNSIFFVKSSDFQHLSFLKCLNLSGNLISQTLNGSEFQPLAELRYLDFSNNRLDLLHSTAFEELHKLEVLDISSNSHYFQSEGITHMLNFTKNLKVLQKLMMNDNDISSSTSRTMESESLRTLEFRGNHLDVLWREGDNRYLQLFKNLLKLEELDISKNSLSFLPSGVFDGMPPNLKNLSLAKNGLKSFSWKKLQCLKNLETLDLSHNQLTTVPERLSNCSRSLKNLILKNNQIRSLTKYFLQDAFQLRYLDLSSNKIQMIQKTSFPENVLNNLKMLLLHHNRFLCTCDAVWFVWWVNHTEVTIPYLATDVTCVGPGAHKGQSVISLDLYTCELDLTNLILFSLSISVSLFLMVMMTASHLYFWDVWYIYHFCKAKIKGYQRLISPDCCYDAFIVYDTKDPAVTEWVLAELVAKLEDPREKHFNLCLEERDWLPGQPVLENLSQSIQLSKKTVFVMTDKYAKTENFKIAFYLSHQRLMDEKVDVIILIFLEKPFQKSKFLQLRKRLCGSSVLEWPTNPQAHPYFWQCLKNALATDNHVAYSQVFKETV
- procedure.summary: TLR7 inhibition reporter assay (HEK-Blue cells, SEAP reporter, gardiquimod stimulation)
- setup.conditions: HEK-Blue cells overexpressing human TLR7, SEAP reporter, gardiquimod 7.5 μM
pIC50: −log10 of the molar value.
assay.readout: pIC50

> print(dat)
                                   compound  measured.number
1  CNCC(=O)N1CCOC(c2ccc3[nH]c(-c4cc(C)c5ncnn5c4)c(C(C)C)c3c2)C1 (stereo not drawn) [Example 338]             9.11
2  Cc1c(-c2[nH]c3ccc(C4CN(C(=O)CN(C)C)CCO4)cc3c2C(C)C)cn2ncnc2c1C (stereo not drawn) [Example 330]             9.00
3  Cc1cc(-c2[nH]c3ccc(C4CCC(N(C)C(=O)CN(C)C)CC4)cc3c2C(C)C)cn2ncnc12 (stereo not drawn) [Example 148]             9.00
